The measurements presented in this section are drawn from patent US9981950B2.

Entries and their measured pIC50 follow.
Target: rat NR1/NR2B receptor (Rattus norvegicus (Rat), UniProt P35439+Q00960)
Sequence (Q00960 27-1482, other chains not shown): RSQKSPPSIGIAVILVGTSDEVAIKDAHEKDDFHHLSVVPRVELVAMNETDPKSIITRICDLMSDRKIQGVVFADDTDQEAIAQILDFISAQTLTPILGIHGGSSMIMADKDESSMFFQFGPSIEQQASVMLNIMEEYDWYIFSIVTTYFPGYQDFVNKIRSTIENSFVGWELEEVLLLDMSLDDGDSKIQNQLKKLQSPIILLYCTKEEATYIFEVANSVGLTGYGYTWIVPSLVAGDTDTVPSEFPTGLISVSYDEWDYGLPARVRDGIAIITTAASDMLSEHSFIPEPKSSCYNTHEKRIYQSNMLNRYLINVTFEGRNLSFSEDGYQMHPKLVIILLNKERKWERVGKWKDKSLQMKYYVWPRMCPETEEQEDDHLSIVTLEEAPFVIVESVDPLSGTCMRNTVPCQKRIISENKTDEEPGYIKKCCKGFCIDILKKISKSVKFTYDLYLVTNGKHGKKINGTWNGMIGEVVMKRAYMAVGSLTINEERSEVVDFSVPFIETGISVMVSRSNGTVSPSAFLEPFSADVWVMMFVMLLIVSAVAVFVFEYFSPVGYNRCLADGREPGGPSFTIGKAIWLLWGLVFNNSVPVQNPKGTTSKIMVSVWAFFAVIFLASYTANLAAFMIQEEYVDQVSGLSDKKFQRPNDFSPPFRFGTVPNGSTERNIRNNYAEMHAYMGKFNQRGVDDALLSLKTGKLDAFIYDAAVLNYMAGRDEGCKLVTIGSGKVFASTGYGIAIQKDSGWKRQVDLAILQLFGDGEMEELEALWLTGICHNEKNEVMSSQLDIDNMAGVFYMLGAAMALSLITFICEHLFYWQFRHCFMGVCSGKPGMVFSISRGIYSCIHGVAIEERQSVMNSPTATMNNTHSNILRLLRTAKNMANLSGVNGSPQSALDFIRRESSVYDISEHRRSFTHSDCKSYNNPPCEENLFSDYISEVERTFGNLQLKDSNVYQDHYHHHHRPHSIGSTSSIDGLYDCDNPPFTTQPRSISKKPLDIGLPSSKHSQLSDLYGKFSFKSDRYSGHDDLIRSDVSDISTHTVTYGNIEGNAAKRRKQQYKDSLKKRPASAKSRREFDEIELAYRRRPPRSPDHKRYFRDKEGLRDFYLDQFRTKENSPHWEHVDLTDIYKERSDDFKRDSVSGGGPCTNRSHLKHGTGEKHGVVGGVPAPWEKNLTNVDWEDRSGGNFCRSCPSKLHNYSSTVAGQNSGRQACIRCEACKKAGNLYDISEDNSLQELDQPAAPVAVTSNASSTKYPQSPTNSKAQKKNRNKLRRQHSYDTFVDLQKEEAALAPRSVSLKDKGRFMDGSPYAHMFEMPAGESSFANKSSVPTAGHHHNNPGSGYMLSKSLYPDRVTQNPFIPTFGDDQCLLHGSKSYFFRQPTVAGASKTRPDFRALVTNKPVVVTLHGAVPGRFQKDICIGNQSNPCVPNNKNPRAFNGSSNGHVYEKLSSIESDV
Assay: RRNR2BB: inhibition of specific binding to the rat NR1/NR2B receptor
Settings: [3H]-Ifenprodil binding, rat brain membranes, Hill-plot 2-parameter-model
Description: RRNR2BB—Inhibition of Specific Binding to the Rat NR1/NR2B Receptor Male Wistar rats (180 to 200 g) were killed by suffocation in a CO2 chamber for two minutes. Whole brains without cerebellum were removed and dissected on ice, placed into closed vials and stored at −70° C. Membrane fractions were prepared and tested using standard techniques. […] The IC50 values in the tables below were determined using the Hill-plot, 2-parameter-model.
pIC50: −log10 of the molar value.
Readout Name: pIC50

{"columns": ["Sample Smiles", "Readout Name", "Assay Value"],
 "data": [
  ["CCCCc1nccn1Cc1cn(-c2ccc(Cl)c(Cl)c2)nn1", "pIC50", 8.16],
  ["Cc1nccn1Cc1cn(-c2cccc(C3CC3)c2)nn1", "pIC50", 7.80],
  ["CC(C)c1nccn1Cc1cn(-c2ccc(Cl)c(Cl)c2)nn1", "pIC50", 8.13],
  ["Clc1ccc(-n2cc(Cn3ccnc3C3CCC3)nn2)cc1Cl", "pIC50", 8.12]
]}
